Target desc: integrin alphaIIb beta3 (UniProt P08514;P08514;P05106 P08514:32-887,P08514:891-1039,P05106:27-788)
Protocol description: affinity identical to alphaV beta3; platelet Kd of ~10 nM stated equivalent to purified alphaIIb beta3
Conditions: tags: Enzyme Research Laboratories
Measurement type: Kd

Let me know recorded Kd for 17.16 (ssRNA, 2'-F C and U) RNA: GGGAGACAAGAAUAAACGCUCAAUUCAACGCUGUGAAGGGCUUAUACGAGCGGAUUACCCUUCGACAGGAGGCUCACAACAGGC , thanks.
~10 nM
